system: SK-MEL-5 melanoma; experiment: NCI tumour cell line growth inhibition, 48 h
Quantity Name: TGI

INSERT INTO assay_data (compound, system, quantity_name, val) VALUES
  ('C/C(=C\c1cnc(C)s1)[C@@H]1C[C@@H]2O[C@@H]2CCC[C@H](C)[C@H](O)[C@@H](C)C(=O)C(C)(C)[C@@H](O)CC(=O)O1', 'SK-MEL-5 melanoma', 'TGI', '> 100 µM'),
  ('CCOP1(=O)C=C(C)C(Cl)=C(C)C1 (configuration not stated)', 'SK-MEL-5 melanoma', 'TGI', '> 100 µM'),
  ('Oc1c(I)cc(I)c2cccnc12', 'SK-MEL-5 melanoma', 'TGI', '16.5 µM'),
  ('CCC1(O)C(=O)OCc2c1cc1n(c2=O)Cc2cc3c(NC(=O)CN)cccc3nc2-1 (configuration not stated)', 'SK-MEL-5 melanoma', 'TGI', '4.78 µM'),
  ('CCOC(=O)N1N=C(/C(C)=N/OC)C(C)S1=O (configuration not stated)', 'SK-MEL-5 melanoma', 'TGI', '> 100 µM'),
  ('CCN1CCC(O)(/C=C/c2ccccc2C)C(C(=O)/C=C/c2ccccc2C)C1 (configuration not stated)', 'SK-MEL-5 melanoma', 'TGI', '2.9 µM'),
  ('CON(C)c1nc(N(C)OC)nc(N(C)OC)n1', 'SK-MEL-5 melanoma', 'TGI', '> 10 µM'),
  ('O=C1Nc2ccccc2N=CC1NC(=O)C(c1ccccc1)c1ccccc1 (configuration not stated)', 'SK-MEL-5 melanoma', 'TGI', '> 100 µM'),
  ('Cn1cc(C2=C(c3cccc(OC[C@@H](O)CO)c3)C(=O)NC2=O)c2ccccc21', 'SK-MEL-5 melanoma', 'TGI', '> 25 µM'),
  ('c1ccc2cc(-c3n(Cc4ccc5ccccc5n4)c4ccccc4[n+]3Cc3ccc4ccccc4n3)ccc2c1', 'SK-MEL-5 melanoma', 'TGI', '0.422 µM'),
  ('COC(=O)c1c(C)n([O-])c2cc(Cl)c(Cl)cc2[n+]1=O', 'SK-MEL-5 melanoma', 'TGI', '23.4 µM'),
  ('COC(=O)C1=C(OC(=O)/C(=C/c2ccc(Cl)cc2)c2ccc(Cl)cc2)C(C(=O)OC)[C@]2(O)[C@@H](C(=O)OC)[C@H]1C[C@@H](c1ccccc1)[C@@H]2C(=O)OC (some centres not stated)', 'SK-MEL-5 melanoma', 'TGI', '> 100 µM'),
  ('CC(C)C(C(=O)O)N1C(=O)c2ccccc2C1=O (configuration not stated)', 'SK-MEL-5 melanoma', 'TGI', '> 100 µM'),
  ('O=C(Nc1cccc(-n2cc(-c3ccncc3)c(-c3cc(O)cc(Cl)c3)n2)c1)c1cc(C(F)(F)F)cc(C(F)(F)F)c1', 'SK-MEL-5 melanoma', 'TGI', '8.67 µM'),
  ('COC(=O)[C@H]1CCCN1C(=O)[C@H]1CCCN1C(=O)[C@@H](Cc1c[nH]c2ccccc12)NC(=S)Nc1cc(C(F)(F)F)cc(C(F)(F)F)c1', 'SK-MEL-5 melanoma', 'TGI', '3.23 µM'),
  ('OC(C#Cc1ccccc1)(c1ccccc1)c1ccccc1', 'SK-MEL-5 melanoma', 'TGI', '37.7 µM'),
  ('O=C(N/N=C/c1ccc([N+](=O)[O-])cc1)Nc1ccc(C(=O)O)cc1', 'SK-MEL-5 melanoma', 'TGI', '45.9 µM');

* * *

tested on: SK-MEL-28 melanoma; experiment: NCI tumour cell line growth inhibition, 48 h
Quantity Name: TGI

INSERT INTO assay_data (compound, val) VALUES
  ('CC(C)C(C(=O)O)N1C(=O)c2ccccc2C1=O (stereo unspecified)', '> 100 µM'),
  ('Fc1ccc(N2C(=S)SC(=Nc3ccccc3)C2=Nc2ccccc2)cc1', '> 100 µM'),
  ('Nc1ccc2c(c1)nc1n2C(c2c(F)cccc2F)SC1 (stereo unspecified)', '> 100 µM'),
  ('OCCN(CCO)c1ncnc2nc[nH]c12', '> 100 µM'),
  ('Cc1cn(CCCCC2=NCCCN2)c(=O)[nH]c1=O', '> 32.9 µM'),
  ('O=C(c1ccccc1)N(C(=O)c1ccccc1)c1nc(SCc2ccccc2)ns1', '93.1 µM'),
  ('NC(=O)NNC(=O)NC12CC3CC(CC(C3)C1)C2', '> 100 µM'),
  ('COC(=O)[C@]1(NC(=O)c2ccccc2)C[C@H]1C=O', '> 100 µM'),
  ('COc1ccc(Oc2cccc(C3C4C(=O)N(c5ccc(C)c(Cl)c5)C(=O)C4ON3C(C(N)=O)c3ccccc3)c2)cc1 (stereo unspecified)', '> 50 µM'),
  ('COCOCC/C=C/C=O', '> 100 µM'),
  ('CCOC(=O)c1sc2nc(SC)nc3c2c1NCN3c1ccc2c(c1)OCO2', '> 100 µM'),
  ('CC1(c2nc3ccccc3[nH]2)CCC(C(=O)O)C(C)(C)O1 (stereo unspecified)', '> 100 µM'),
  ('Cc1ccc(NC(=O)CC2C(=O)Nc3ccccc3S2(=O)=O)c(C)c1 (stereo unspecified)', '41.1 µM'),
  ('C=C1CC(c2ccc(OCCCN3C(=O)c4ccccc4C3=O)cc2)OC1=O (stereo unspecified)', '3.98 µM'),
  ('O=C(CC1SC(=Nc2ccccc2Cl)NC1=O)Nc1ccc(Cl)cc1Cl (stereo unspecified)', '> 100 µM'),
  ('O=c1[nH]nc(Cc2ccccc2)n1C1CCCC1', '> 100 µM'),
  ('C(=N/N(Cc1ccccc1)Cc1ccccc1)/c1ccccc1', '> 100 µM'),
  ('[N-]=[N+]=NI1OC(=O)c2ccccc21', '> 100 µM'),
  ('NS(=O)(=O)c1nnc(NS(=O)(=O)C(F)(F)F)s1', '> 100 µM'),
  ('COc1ccc(OC)c(N(CN2C(=O)CCC2C(=O)O)C(C)=O)c1 (stereo unspecified)', '> 100 µM'),
  ('Cc1c(-c2ccccc2)[nH]c2cc(Cl)ccc2c1=O', '> 100 µM'),
  ('CCOC(=O)N1N=C(/C(C)=N/OC)C(C)S1=O (stereo unspecified)', '> 100 µM'),
  ('CCC1(O)C(=O)OCc2c1cc1n(c2=O)Cc2cc3c(NC(=O)CN)cccc3nc2-1 (stereo unspecified)', '> 100 µM'),
  ('C=C(C)C1Cc2c(c3ccccc3n(C)c2=O)O1 (stereo unspecified)', '> 100 µM'),
  ('C=CCN1CC(=O)N2[C@@H](Cc3ccc(O)cc3F)C(=O)N(Cc3cccc(N4CC(N5CCN(CC)CC5)C4)n3)C[C@@H]2N1C(=O)NCc1ccccc1', '> 100 µM'),
  ('CC(C)(O)CNc1nc(Nc2ccnc(C(F)(F)F)c2)nc(-c2cccc(C(F)(F)F)n2)n1', '36.2 µM');

* * *

test system: HCT-15 colon; test: NCI tumour cell line growth inhibition, 48 h
Below, each entry is listed alongside its reported TGI.
Quantity Name: TGI

INSERT INTO results (molecule, val) VALUES
  ('COCCNC(=O)C1C(=O)C(=O)N(CCOC)C1=O (centres undefined)', '> 100 µM'),
  ('CCc1c(C)c(C#N)c(=S)n(C2OC(COC(C)=O)C(OC(C)=O)C(OC(C)=O)C2OC(C)=O)c1-c1ccccc1 (centres undefined)', '> 31.6 µM'),
  ('COc1ccc(/C=N/n2c(C)n[nH]c2=O)c(OC)c1', '> 100 µM'),
  ('C[C@]12C[C@@H](OC(=O)[C@]1(C)O)[C@@H]([C@]1(O)CC[C@H]3[C@@H]4C[C@H]5O[C@]56C[C@H]5O[C@H]5C(=O)[C@]6(C)[C@H]4CC[C@@]31C)C2', '> 50 µM'),
  ('CON(C)c1nc(N(C)OC)nc(N(C)OC)n1', '> 10 µM'),
  ('N#CCN1CCn2c1nsc2=S', '> 100 µM'),
  ('CC(=O)Oc1ccc(/C=C/C(=O)OCCCOC(=O)/C=C/c2ccc(OC(C)=O)c(OC(C)=O)c2)cc1OC(C)=O', '> 100 µM'),
  ('Cc1c(-c2ccccc2)[nH]c2cc(Cl)ccc2c1=O', '> 100 µM'),
  ('Nc1nc(Nc2ccccc2)c2[nH]cnc2n1', '> 100 µM');

* * *

# reported TGI; entries follow
system: SK-MEL-2 melanoma; assay: NCI tumour cell line growth inhibition, 48 h
Quantity Name: TGI (µM)

INSERT INTO results (compound, quantity_name, measurement_unit, lt_gt_eq, val) VALUES
  ('COCCNC(=O)C1C(=O)C(=O)N(CCOC)C1=O (stereo not drawn)', 'TGI', 'µM', '>', 100),
  ('C[C@]12CC[C@@H]3c4cc(OC(F)F)c(OS(N)(=O)=O)cc4CC[C@H]3[C@@H]1CC[C@@H]2O', 'TGI', 'µM', '=', 38.7),
  ('COc1cc2c(cc1OCCCCN1CCN(C(=S)SCCC(C#N)(c3ccccc3)c3ccccc3)CC1)N=C[C@@H]1CCCN1C2=O', 'TGI', 'µM', '=', 2.35);
